# assayed system: Rat Kidney Medullary V2 Receptors (Rattus norvegicus)
# Sequence (Q00788 whole entry): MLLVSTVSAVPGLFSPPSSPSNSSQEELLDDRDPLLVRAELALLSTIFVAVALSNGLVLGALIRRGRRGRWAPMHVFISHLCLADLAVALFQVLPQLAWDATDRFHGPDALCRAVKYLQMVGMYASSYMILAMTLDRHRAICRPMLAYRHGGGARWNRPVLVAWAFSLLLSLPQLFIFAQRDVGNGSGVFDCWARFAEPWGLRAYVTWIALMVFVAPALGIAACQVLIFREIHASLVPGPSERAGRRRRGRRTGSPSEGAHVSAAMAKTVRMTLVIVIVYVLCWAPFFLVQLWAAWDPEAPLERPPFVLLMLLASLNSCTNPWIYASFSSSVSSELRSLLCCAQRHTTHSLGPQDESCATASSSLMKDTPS
pIC50: −log10 of the molar value.
measured property: pIC50

O=C(c1ccc(-c2ccccn2)cc1)N1Cc2cccn2Cc2ccccc21 [Example 9] ... 5.92

----------
# assayed system: oxytocin receptors (Rattus norvegicus)
# Sequence (P70536 1-388): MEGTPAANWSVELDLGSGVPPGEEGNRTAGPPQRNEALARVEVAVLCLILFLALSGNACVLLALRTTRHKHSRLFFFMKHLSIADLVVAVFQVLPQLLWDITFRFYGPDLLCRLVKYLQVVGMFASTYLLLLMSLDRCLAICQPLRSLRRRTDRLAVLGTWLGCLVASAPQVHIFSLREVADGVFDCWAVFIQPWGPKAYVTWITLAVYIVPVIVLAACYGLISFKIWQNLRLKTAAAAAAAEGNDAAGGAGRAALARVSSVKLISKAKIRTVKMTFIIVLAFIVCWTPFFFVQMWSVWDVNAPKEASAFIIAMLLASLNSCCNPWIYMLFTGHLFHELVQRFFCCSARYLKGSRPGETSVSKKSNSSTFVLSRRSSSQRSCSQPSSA
pIC50: −log10 of the molar value.
measured property: pIC50

O=C(c1ccccc1)c1ccc(C(=O)N2Cc3cccn3Cc3ccccc32)cc1 ... 6.96
O=C(c1ccc(-c2ccccc2)cc1)N1Cc2cccn2-c2ccccc21 ... 5.96
O=C(c1ccc(-c2cc(F)cc(F)c2)cc1)N1Cc2cccn2Cc2ccccc21 ... 5.59
O=C(c1ccc(-c2ccccn2)cc1)N1Cc2cccn2Cc2ccccc21 ... 6.89
O=C(c1ccc(-c2ccccc2[N+](=O)[O-])cc1)N1Cc2cccn2Cc2ccccc21 ... 7.31
Cc1ccc(Oc2ccc(C(=O)N3Cc4cccn4Cc4ccccc43)cc2)cc1 ... 6.92
O=C(c1ccc(-c2ccccc2)cc1)N1Cc2ccnn2Cc2ccccc21 ... 6.64

Values compiled from patent US5521173A.
